# TARGET ENTITY: UniProt Q02153
# Sequence (Q02153 1-619): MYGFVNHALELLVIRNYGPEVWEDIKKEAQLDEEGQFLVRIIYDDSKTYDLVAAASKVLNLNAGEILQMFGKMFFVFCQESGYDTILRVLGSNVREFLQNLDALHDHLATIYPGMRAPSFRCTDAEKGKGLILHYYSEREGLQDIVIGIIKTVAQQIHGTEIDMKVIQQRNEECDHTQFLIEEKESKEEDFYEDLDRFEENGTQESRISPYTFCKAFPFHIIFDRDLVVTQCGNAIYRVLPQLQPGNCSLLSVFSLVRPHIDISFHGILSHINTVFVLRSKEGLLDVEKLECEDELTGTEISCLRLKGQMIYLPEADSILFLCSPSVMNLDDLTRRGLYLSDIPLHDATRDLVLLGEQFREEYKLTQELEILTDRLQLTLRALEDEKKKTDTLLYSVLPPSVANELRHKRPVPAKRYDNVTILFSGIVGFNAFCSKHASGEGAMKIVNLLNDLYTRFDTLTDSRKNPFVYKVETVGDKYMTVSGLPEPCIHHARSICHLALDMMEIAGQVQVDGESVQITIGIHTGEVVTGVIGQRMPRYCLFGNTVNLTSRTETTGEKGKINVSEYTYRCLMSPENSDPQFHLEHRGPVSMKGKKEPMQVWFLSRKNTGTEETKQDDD
# Sequence (Q02108 1-690 partner): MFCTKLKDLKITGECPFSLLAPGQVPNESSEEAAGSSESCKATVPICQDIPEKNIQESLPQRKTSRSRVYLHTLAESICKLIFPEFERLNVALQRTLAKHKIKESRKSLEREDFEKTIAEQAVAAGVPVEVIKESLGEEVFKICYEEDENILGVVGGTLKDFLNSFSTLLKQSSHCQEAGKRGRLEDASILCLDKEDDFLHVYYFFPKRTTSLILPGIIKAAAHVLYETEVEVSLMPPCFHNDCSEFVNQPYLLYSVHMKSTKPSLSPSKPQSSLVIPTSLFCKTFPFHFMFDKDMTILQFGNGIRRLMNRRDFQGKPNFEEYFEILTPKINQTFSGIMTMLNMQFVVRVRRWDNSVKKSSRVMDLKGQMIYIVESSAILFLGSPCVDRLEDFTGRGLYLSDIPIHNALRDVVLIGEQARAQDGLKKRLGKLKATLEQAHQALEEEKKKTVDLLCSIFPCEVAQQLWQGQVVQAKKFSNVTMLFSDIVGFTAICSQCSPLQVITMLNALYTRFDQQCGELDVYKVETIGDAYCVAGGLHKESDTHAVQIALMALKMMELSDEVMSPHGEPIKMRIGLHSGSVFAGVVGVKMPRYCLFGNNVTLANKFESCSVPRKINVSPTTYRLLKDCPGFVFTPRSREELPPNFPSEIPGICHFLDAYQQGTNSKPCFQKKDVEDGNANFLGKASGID
# PROTOCOL: Measurement of sGC activating effect in CHO-K1 cells stably expressing human sGC and mouse CNGA2
# CONDITION PARAMETERS: CHO-K1 cells expressing human sGC and mouse CNGA2, Fura2 calcium readout, 10 μmol/L ODQ in assay buffer
pEC50: −log10 of the molar value.
METRIC NAME: pEC50

MOLECULE | TARGET ENTITY | pEC50
CC(C)(C)c1cccc(CO[C@@H](CN(CCCCC(=O)O)Cc2ccc(C(=O)O)cc2)c2cccc(Cl)c2)c1 | UniProt Q02153 | 8.81
O=C(O)CCCCN(CCc1ccccc1OC[C@@H]1CCc2ccccc2C1)C1CCCc2cc(C(=O)O)ccc21 (stereo partly drawn) | UniProt Q02153 | 8.12

I: O=C(O)CCCCN(Cc1ccc(C(=O)O)cc1)CC(OCc1ccc(CCc2ccccc2)cc1)c1ccc(F)cc1 (stereo not drawn)
II: O=C(O)CCCCN(CCc1ccccc1OCc1ccc2c(c1)CCCC2)C1CCCc2cc(C(=O)O)ccc21 (stereo not drawn)
Response body: label of entry with the larger pEC50; valid values I , II . In your reply, give the label of the chosen option.
II

1: O=C(O)CCCCN(CCc1ccccc1OCc1ccc(OCc2ccccc2)cc1)C1CCCc2cc(C(=O)O)ccc21 (stereo not drawn)
2: O=C(O)CCCCN(Cc1ccc(C(=O)O)cc1)CC(OCc1ccc(CCc2ccccc2)cc1)c1cccs1 (stereo not drawn)
Larger number for pEC50: 1 , or 2 ? Identify your selection by its label.
2

----------
# PROTOCOL: Determination of Log D value (flask shaking method)
# Assay type: physicochemical
# CONDITION PARAMETERS: pH 6.8; partition between n-octanol and second solution for the disintegration test (16th revised Japanese Pharmacopoeia), room temperature
METRIC NAME: logD

Here is how some compounds turned out for logD.
COMPOUND | logD
O=C(O)CCCCN(Cc1ccc(C(=O)O)cc1)CC(OCc1ccc(CCc2ccccc2)cc1)c1ccc(F)cc1 (stereo not shown) | 2.19
O=C(O)CCCCN(Cc1ccc(C(=O)O)cc1)C[C@H](OCc1ccc(Oc2ccccc2)cc1)c1cccc(Cl)c1 | 2.35
O=C(O)CCCCN(Cc1ccc(C(=O)O)cc1)C[C@H](OCc1cccc(CCc2ccccc2)c1)c1ccccc1 | 1.94
O=C(O)CCCCN(CCc1ccccc1OC[C@@H]1CCc2ccccc2C1)C1CCCc2cc(C(=O)O)ccc21 (stereo partly shown) | 1.99
O=C(O)CCCCN(CCc1ccccc1OCc1cc2c(s1)CCCC2)C1CCCc2cc(C(=O)O)ccc21 (stereo not shown) | 1.74

P: CC(C)(C)c1cccc(COc2ccccc2CCN(CCCCC(=O)O)[C@H]2CCCc3cc(C(=O)O)ccc32)c1
Q: N#Cc1cccc([C@H](CN(CCCCC(=O)O)Cc2ccc(C(=O)O)cc2)OCc2ccc(Oc3ccccc3)cc2)c1 [Comparative Compound 3, reference compound]
Of the pair P and Q , name the member with the lesser recorded logD. Field: selected label. Fill in the label of the entry you choose.
Q
(Q: 1.32, P: 2.09)

----------
# TARGET ENTITY: human sGC (Homo sapiens, UniProt Q02153)
# Construct: expressed in transfected cells; host or cells: CHO-K1 cells (Chinese hamster ovary), stably co-expressing mouse CNGA2 as the calcium read-out channel
# PROTOCOL: Measurement of sGC activating effect in CHO-K1 cells stably expressing human sGC and mouse CNGA2
# Format: cell-based
# CONDITION PARAMETERS: CHO-K1 cells expressing human sGC and mouse CNGA2, Fura2 calcium readout, 10 μmol/L ODQ in assay buffer
pEC50: −log10 of the molar value.
METRIC NAME: pEC50

1: O=C(O)CCCCN(Cc1ccc(C(=O)O)cc1)C[C@H](OCc1ccc(CCc2ccccc2)cc1F)c1ccccc1 [Compound No. 3]
2: CC(C)(C)c1ccccc1COc1ccccc1CCN(CCCCC(=O)O)C1CCCc2cc(C(=O)O)ccc21 (stereo not shown) [Compound No. 15]
// returns 1 or 2 , whichever has the lower pEC50 # answer = label of selected item
2

P: O=C(O)CCCCN(Cc1ccc(C(=O)O)cc1)C[C@H](OCc1cccc(CCc2ccccc2)c1)c1ccccc1 [Compound No. 11]
Q: O=C(O)CCCCN(CCc1ccccc1OCc1ccc(C#CC2CC2)cc1)C1CCCc2cc(C(=O)O)ccc21 (stereo not shown) [Compound No. 21]
R: O=C(O)CCCCN(CCc1ccccc1OCc1ccc(OCc2ccccc2)cc1)C1CCOc2cc(C(=O)O)ccc21 (stereo not shown) [Compound No. 24]
Rank entries according to their pEC50, from the largest number down. State the ranking by listing the labels in the requested order.
P, R, Q

1: O=C(O)CCCCN(CCc1ccccc1OCc1ccc(COc2ccccc2)cc1)C1CCCc2cc(C(=O)O)ccc21 (stereo not shown) [Compound No. 22]
2: O=C(O)CCCCN(Cc1ccc(C(=O)O)cc1)C[C@H](OCc1ccc(Oc2ccccc2)cc1)c1cccc(Cl)c1 [Compound No. 23]
Please choose the item with the lower pEC50 value from this pair: 1 and 2 Choose, then provide that item's label.
1
(1: 8.05, 2: 8.61)

----------
# PROTOCOL: Determination of Log D value (flask shaking method)
# Assay type: physicochemical
# CONDITION PARAMETERS: pH 6.8; partition between n-octanol and second solution for the disintegration test (16th revised Japanese Pharmacopoeia), room temperature
METRIC NAME: logD

COMPOUND | logD
O=C(O)CCCCN(CCc1ccccc1OCc1ccc(CCc2ccccc2)cc1)[C@H]1CCc2cc(C(=O)O)ccc21 [Compound No. 12] | 1.95

A: O=C(O)CCCCN(CCc1ccccc1OCc1ccc(CCc2ccccc2)cc1)C1COc2cc(C(=O)O)ccc21 (stereo not drawn) [Comparative Compound 2, reference compound]
B: O=C(O)CCCCN(Cc1ccc(C(=O)O)cc1)C[C@H](OCc1ccc(CCc2ccccc2)s1)c1ccccc1 [Compound No. 4]
Lab log: flag the item ( A or B ) with the smaller logD figure. Please reply using the label of the selected record.
B
(B: 1.8, A: 2.59)

----------
# PROTOCOL: Determination of Log D value (flask shaking method)
# Type: physicochemical
# CONDITION PARAMETERS: pH 6.8; partition between n-octanol and second solution for the disintegration test (16th revised Japanese Pharmacopoeia), room temperature
METRIC NAME: logD

COMPOUND | MEAS VALUE
O=C(O)CCCCN(Cc1ccc(C(=O)O)cc1)C[C@H](OCc1ccc(CCc2ccccc2)cc1F)c1ccccc1 [Compound No. 3] | 1.99
CC(C)c1ccc(COc2ccccc2CCN(CCCCC(=O)O)[C@H]2CCCc3cc(C(=O)O)ccc32)cc1 [Compound No. 10] | 1.88
CC(C)(C)c1cc(CO[C@@H](CN(CCCCC(=O)O)Cc2ccc(C(=O)O)cc2)c2ccccc2)cc(C(C)(C)C)c1 [Comparative Compound 4, reference compound] | 2.78
O=C(O)CCCCN(CCc1ccccc1OCc1ccc2c(c1)CCCC2)C1CCOc2cc(C(=O)O)ccc21 (stereo not shown) [Compound No. 18] | 2.14
O=C(O)CCCCN(Cc1ccc(C(=O)O)cc1)C[C@H](OCc1ccc(CCc2ccccc2)cc1)c1ccccc1 [Compound No. 14] | 2.04
O=C(O)CCCCN(CCc1ccccc1OC[C@H]1CCc2ccccc2C1)C1CCCc2cc(C(=O)O)ccc21 (stereo partly shown) [Compound No. 17] | 2
O=C(O)CCCCN(Cc1ccc(C(=O)O)cc1)CC(OCc1ccc(CCc2ccccc2)cc1)c1cccs1 (stereo not shown) [Compound No. 7] | 2.11
